Target protein (sequence): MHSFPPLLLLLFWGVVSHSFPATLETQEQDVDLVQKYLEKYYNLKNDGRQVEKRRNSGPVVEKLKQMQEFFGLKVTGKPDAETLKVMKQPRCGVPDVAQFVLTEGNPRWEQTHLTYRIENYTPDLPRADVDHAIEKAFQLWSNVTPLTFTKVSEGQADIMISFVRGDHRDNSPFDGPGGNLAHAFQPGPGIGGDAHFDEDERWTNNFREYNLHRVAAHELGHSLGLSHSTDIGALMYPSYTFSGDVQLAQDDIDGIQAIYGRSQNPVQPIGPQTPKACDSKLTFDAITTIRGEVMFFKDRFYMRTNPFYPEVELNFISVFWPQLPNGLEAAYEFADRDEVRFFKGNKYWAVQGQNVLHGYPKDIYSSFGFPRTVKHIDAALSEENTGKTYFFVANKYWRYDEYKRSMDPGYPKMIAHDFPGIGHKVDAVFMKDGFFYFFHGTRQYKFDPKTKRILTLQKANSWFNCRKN
pIC50: −log10 of the molar value.
measured_endpoint: pIC50

[[record]]
molecule = "CNC(=O)[C@H](Cc1ccc(OC)cc1)NC(=O)C1(NC(CCN2C(=O)c3cc4ccccc4cc3C2=O)C(=O)O)CCCCC1 (stereo in doubt; form 2)"
endpoint_value = 7.05

[[record]]
molecule = "O=C(O)C(CCN1C(=O)c2cc3ccccc3cc2C1=O)CC1(C(=O)NCc2ccccc2)CCCCC1 (racemic)"
endpoint_value = 5.52

[[record]]
molecule = "CNC(=O)[C@H](Cc1ccc(OC)cc1)NC(=O)C1(CC(CCN2C(=O)c3cc4ccccc4cc3C2=O)C(=O)O)CCCC1 (stereo in doubt; form 2)"
endpoint_value = 6.59

[[record]]
molecule = "CNC(=O)[C@H](Cc1ccc(OC)cc1)NC(=O)C1(CC(CCN2C(=O)c3cc4ccccc4cc3C2=O)C(=O)O)CCCC1 (stereo in doubt; form 1)"
endpoint_value = 6.03


P = CNC(=O)[C@H](Cc1ccc(OC)cc1)NC(=O)C1(CC(CCN2C(=O)c3cc4ccccc4cc3C2=O)C(=O)O)CCCCC1 (stereo in doubt; form 1)
Q = CNC(=O)[C@H](Cc1ccc(OC)cc1)NC(=O)C1(CC(CCN2C(=O)c3ccc(OC)cc3C2=O)C(=O)O)CCCCC1 (mixture of isomers)
Problem: Could you please tell me which of these two has the higher pIC50: P or Q ? Let me know the label of the one you choose.
Solution: P
